Consider the following compounds and their measured TGI readings.
Tested on: SNB-19 CNS
Experiment: NCI tumour cell line growth inhibition, 48 h
Write it as a number; the unit µM goes unstated.

Known TGI results, listed for orientation:
[[record]]
compound = "CC[n+]1c(/C=C/c2ccc(N(CCCl)CCCl)cc2)ccc2cc(I)ccc21"
meas_value = 2.35

[[record]]
compound = "CCCCN1C(=O)/C(=c2\\sc3n(c2=O)C2C(NN=3)N(CC)C(=O)N2CC)c2ccccc21 (stereo not given)"
meas_value = 28.1


Below: the item to evaluate.
[Q] GET /values?readout=TGI&item= C=C1C(=O)O[C@H]2[C@H]1CC/C(COC(=O)NCCc1cccc(OC)c1)=C\CC[C@@]1(C)O[C@@H]21
[A] 3.13

----------
System: COLO 205 colon
Experiment: NCI tumour cell line growth inhibition, 48 h
Examples of compounds with documented TGI follow.

These recorded examples may help you get a feel for the data.
[[record]]
compound = "COC(=O)/C(=C/c1ccc(OC)cc1)C(C(=O)O)=C1CCCCC1"
property_name = "TGI"
meas_value = "> 100 µM"

[[record]]
compound = "CCC[CH2][Sn]([CH2]CCC)([CH2]CCC)[O]C(=O)C(OC)c1ccccc1 (stereo unspecified)"
property_name = "TGI"
meas_value = "0.264 µM"

[[record]]
compound = "COc1cc(-c2nccc3cc4c(cc23)OCO4)cc(OC)c1OC"
property_name = "TGI"
meas_value = "> 100 µM"

[[record]]
compound = "NS(=O)(=O)c1nnc(NS(=O)(=O)c2ccc([N+](=O)[O-])cc2)s1"
property_name = "TGI"
meas_value = "> 100 µM"

[[record]]
compound = "COc1cccc2cc(C(=O)NC34CC5CC(CC(C5)C3)C4)c(=N)oc12"
property_name = "TGI"
meas_value = "> 100 µM"


Pending compound:
[Q] Need TGI, item CC(=O)n1nc(-c2ccc3ccccc3c2)nc1C
[A] > 100 µM

----------
System: M14 melanoma
Experiment: NCI tumour cell line growth inhibition, 48 h
Property name: TGI

Example molecules with recorded TGI:
[[record]]
molecule = "O=C(Nc1ccc2cc3ccccc3cc2c1)c1cc2c(cc1Cl)Sc1nccn1S2(=O)=O"
meas_value = "> 100 µM"

[[record]]
molecule = "CN1CCCN2CCN(C)CCCN(CC1)CC2"
meas_value = "> 100 µM"


[Q] What does the record list as TGI for CCN(CC)c1ccc2nc3ccc(N=Nc4ccc(O)cc4)cc3[n+](-c3ccccc3)c2c1 ?
[A] 4.79 µM

[Q] Need TGI of COc1ccc2[nH]c(C(=O)OCc3ccc4cccc(O)c4n3)cc2c1 , thanks.
[A] 2.04 µM

[Q] Report TGI for COc1cc(Nc2ncnc(Nc3ccc4c(n3)NC(=O)C(C)(C)O4)n2)cc(OC)c1OC please.
[A] > 100 µM

[Q] Request the reported TGI associated with CCC(=O)Nc1ccc(NCC(=O)Nc2ccc(OC)cc2)cc1
[A] > 100 µM

[Q] Given Cc1ccc(S(=O)(=O)NC(=O)NC(CCC(N)=O)C(=O)O)cc1 (stereo not given) , state its recorded TGI.
[A] > 100 µM

[Q] Endpoint output: TGI of COC(=O)[C@H](Cc1c[nH]c2ccccc12)NC(=O)c1ccccc1I . Value?
[A] 32.4 µM

[Q] Requested field: TGI. Item: N#C/C(=C\c1ccccc1)C(NO)Nc1ccccc1 (stereo not given)
[A] > 100 µM

[Q] Which TGI value is on record for CCn1c(CSc2nc(-c3ccccc3)c(-c3ccccc3)[nH]2)n[nH]c1=S ?
[A] > 100 µM

[Q] Look up TGI for this molecule: S=C(CSc1ccccc1)Nc1cccc2ccccc12
[A] > 100 µM

----------
Test system: U251 CNS
Form entry, call: pick from 1.0 for active, 0.0 for inactive

Example entries and their recorded answers appear below.
[[record]]
compound = "COc1ccc2nc3cccc([N+](=O)[O-])c3c(NCCNCCN(C)C)c2c1"
category = 1.0

[[record]]
compound = "Cn1cncc1-c1c(F)cncc1NC(=O)c1c(N)nn2cc(F)cnc12"
category = 0.0

[[record]]
compound = "COc1ccc(-c2nc(N)c(C#N)c3c2CCOc2c-3ccc3ccccc23)cc1"
category = 0.0

[[record]]
compound = "COc1ccc(-c2nsc3c2NC(=O)CC3c2cccc(Cl)c2)cc1 (stereo not given)"
category = 0.0

[[record]]
compound = "COc1ccc2c(c1)O/C(=C\\c1cccc(OCC(=O)Nc3nc(C)c(C)s3)c1)C2=O"
category = 0.0


[Q] Given O=C1Nc2ccccc2/C1=C/c1cn(CC(O)Cn2cc(/C=C3\C(=O)Nc4ccccc43)c3ccccc32)c2ccccc12 (stereo not given) , state the outcome it received in this test.
[A] 0.0

[Q] What call does the record list for C=C(CN1c2ccccc2Sc2ccccc21)c1ccc(C(=O)Nc2ccccc2N)cc1 ?
[A] 0.0

[Q] Which result was noted for this compound in the test: Cn1cc(C2=C(c3ccccc3C(F)(F)F)C(=O)NC2=O)c2ccccc21
[A] 0.0

[Q] Entry COc1cc(NC(C)CCCNC(C)C)c2ncccc2c1OC (stereo not given) : call = ?
[A] 0.0

[Q] Please share the test call associated with Nc1nc2c(ccc3ccccc32)s1 .
[A] 0.0

----------
TGI: recorded values
System: HL-60(TB) leukemia
Experiment: NCI tumour cell line growth inhibition, 48 h

[[record]]
molecule = "O=C(NC1(C(=O)O)CCCC1)c1ccccc1"
property_name = "TGI"
meas_value = "> 100 µM"

[[record]]
molecule = "CCOC(=O)C1=C(C(=O)OCC)C2(c3ccccc3)N(O1)c1ccccc1C2(C)C (stereo not drawn)"
property_name = "TGI"
meas_value = "53 µM"

[[record]]
molecule = "S=C(CSc1ccccc1)Nc1cccc2ccccc12"
property_name = "TGI"
meas_value = "> 100 µM"

[[record]]
molecule = "COc1cc2c3c(c1OC)C(=O)C=C3N(S(=O)(=O)c1ccc(C)cc1)CC2"
property_name = "TGI"
meas_value = "> 100 µM"

[[record]]
molecule = "CN(C)N=Nc1ccc2[nH]c(=O)[nH]c2c1"
property_name = "TGI"
meas_value = "83.7 µM"


[Q] Field request: TGI | item: Cc1cn(C2OC(CO)C(O)C2F)c(=O)[nH]c1=O (stereo not drawn)
[A] > 100 µM

[Q] Find the recorded TGI belonging to Cc1cc2nnc(C(N)=O)c(N)c2cc1C and report it.
[A] > 100 µM

[Q] Request the reported TGI associated with CN1NC(c2ccccc2)=C(C#N)C(=O)CC1c1ccc(Br)cc1 (stereo not drawn)
[A] 83 µM

[Q] Recorded TGI for CCn1c(CSc2nc(-c3ccccc3)c(-c3ccccc3)[nH]2)n[nH]c1=S , please?
[A] > 100 µM

[Q] If you can, please state the reported TGI value of COC(=O)CC(=O)NCC1=CCC(=O)CC1 .
[A] > 100 µM

----------
System: HL-60(TB) leukemia
Experiment: NCI tumour cell line growth inhibition, 48 h; in the data active means GI50 below about 0.43 µM; inactive means the rest
Just give me one of these, please: active, inactive

[Q] Which outcome was assigned to C=C(CN1c2ccccc2Sc2ccccc21)c1ccc(C(=O)Nc2ccccc2N)cc1 in this test?
[A] active

[Q] I'd appreciate the recorded outcome for CC/C(Cc1ccccc1)=C(/c1ccc(O)cc1)c1ccc(OCCN2CCCC2)cc1 from this test.
[A] inactive

[Q] Hi, sorry to bother you, what did the test record for COc1ccc(-c2nsc3c2NC(=O)CC3c2cccc(Cl)c2)cc1 (centres undefined) ?
[A] inactive

[Q] Call for entry Nc1ccccc1C(=O)NC(=O)Nc1ccc(Oc2ncc(Br)cn2)c(Cl)c1 :
[A] active

[Q] What did this assay record as the result for CC12OC(C(=O)C13CCC3)C1C(=O)c3ccc4c(ccc5ccccc54)c3C(=O)C12 (centres undefined) ?
[A] inactive

----------
System: BT-549 breast
Experiment: NCI tumour cell line growth inhibition, 48 h
Property name: TGI

For orientation, consider the following solved cases.
[[record]]
compound = "O=c1c2c3c(sc2nc2n1N=CN(c1ccc(F)cc1)C2)CCCC3"
meas_value = "> 100 µM"

[[record]]
compound = "CCN(CC)c1nc(NC2CCCCC2)c2nc(N(CC)CC)nc(NC3CCCCC3)c2n1"
meas_value = "> 100 µM"

[[record]]
compound = "C=CCCC(=O)C(=[N+]=[N-])C(=O)CCC(=O)c1ccccc1"
meas_value = "> 10 µM"

[[record]]
compound = "CCOC1CCN(C(=O)c2ccccc2)O1 (centres undefined)"
meas_value = "> 10 µM"

[[record]]
compound = "O=C1/C(=C/c2ccccc2)CCCc2ccccc21"
meas_value = "36 µM"

[[record]]
compound = "COc1cc(-c2nccc3cc4c(cc23)OCO4)cc(OC)c1OC"
meas_value = "> 100 µM"

[[record]]
compound = "C1=NCCOCCN=Cc2ccc(cc2)OCc2cccc(n2)COc2ccc1cc2"
meas_value = "> 100 µM"

[[record]]
compound = "NS(=O)(=O)c1nnc(NS(=O)(=O)c2ccc([N+](=O)[O-])cc2)s1"
meas_value = "> 100 µM"


[Q] Using the record for CC12OC(C(=O)C13CCC3)C1C(=O)c3ccc4c(ccc5ccccc54)c3C(=O)C12 (centres undefined) , report its TGI.
[A] 48.4 µM

[Q] Record request: TGI value, item COC(=O)[C@H](Cc1c[nH]c2ccccc12)NC(=O)c1ccccc1I
[A] > 100 µM

[Q] Quick check: TGI of Nc1ccccc1C(=O)NC(=O)Nc1ccc(Oc2ncc(Br)cn2)c(Cl)c1 ?
[A] > 62.9 µM
